B1: tRNA (parent)
chain: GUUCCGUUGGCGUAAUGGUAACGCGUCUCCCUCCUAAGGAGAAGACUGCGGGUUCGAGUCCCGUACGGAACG

variants of: B1; test: yeast fitness relative to wild type (ratio to wild type); higher = fitter; tRNA-Arg(CCU), competitive growth, 37 C, YPD
Fewer inactive variants are shown than the library holds.
Collected yeast fitness values appear next to each entry.
parameter measured: yeast fitness

input sequence | comparative sign | numeric readout
GUUCCGUUGGCGUAAUGGUAACGCGUGUCGCUCCUAAGGGGAAGACUGAGGGUUCGAGUCCCGUACGGAACG [C27G C30G A40G C49A] | = | 0.571
GUUCCCUUGGCGUUAUGGUAACGCGUCUCCCUCCUAAGGAGAAGACUGCGGGUUCGAGUCCCGUACGGACCG [G6C A14U A70C] | = | 0.591
GUUCCGUUGGCGUAAUGGUAACGCGUAUCCCUCCUAAGGACAAGACUGCGGGUUCGUGUCCCGUACGGAACG [C27A G41C A57U] | = | 0.611
GUUCCGUUGGCGUAAUGGUAUCGCGUCUCUCUCCUAAGGCGAAGACUGCGGGUUCGAGCCCUGUACUGAACG [A21U C30U A40C U59C C62U G67U] | = | 0.554
GUUCCGUUGGCGUAAUGGUAACGCGUCUUCUUCCUAAGGAGAAGACUGCGGGUUCGAGUCCCGUAUGGAACG [C29U C31U C66U] | = | 0.591
GUUCCGUUGGCGUAAUGGUAACGCGACUCACUCAUAAGGAGAAGACUCCGGGUUCGAGUCCCGUACGGAACG [U26A C30A C34A G48C] | = | 0.583
GUACUGUUGGCGUAAUGGUAACGCGUCUCCGUCCUAAGGAGAAGACUGCGGGUUCGGGUCCCGUACGGAACG [U3A C5U C31G A57G] | ≤ | 0.5
GUUCCGUUGGCGUAAUGGUAACGCGUCUCCCUCCUAAGGAGAUGACUGCGGAUUCGAGUCCCGUACGGAACG [A43U G52A] | = | 0.663
GUUCAGUUGGCGUAAUGGUAACGUGUCUCCCUCCUAAGGAGAAGACUGCGGGUUCGAGUCCCGUACGGCACG [C5A C24U A69C] | = | 0.641
GUUCCGUUGGCGUAAUGGUAACGCGUGUCCCUCCUAAGGAGAAGACCGCAGGUUCGGGUGCCGUACGGAACG [C27G U47C G50A A57G C60G] | = | 0.636
GUUCAGUUGGCGUAAUGGUCAAGUGUCUCCUUCCUAAGGAGAAGACUGCGGGUUCGAGUCCCGUACAGAACG [C5A A20C C22A C24U C31U G67A] | ≤ | 0.5
GUUCCGUGGGCGUAAUGGUAACGCGUCUCCCUCCUAAGGAGAAGACUGCGGGUUCGAGUCCUGAACCGAACG [U8G C62U U64A G67C] | = | 0.603
GUUCCGUUGGCGUAAUAGUAACGCGUCUCUCUCCUAAGGAGCAGACUGCGGGUUCGAGUCCCGUACGGAACG [G17A C30U A42C] | ≤ | 0.5
GUUCCGUUGGCGUAAUGGUAACGCGUCUCCCUCCUAAGGAGAAGACUGCAGGUUCGAGUCCCGUGCGGAACG [G50A A65G] | = | 1.03
GUUCCGUUGCCGUAAUAGUAACGCGUCUCCCUCCGAAGGAGAAGACUGCGGGUUCGAGUCCCGUACGGAACG [G10C G17A U35G] | ≤ | 0.5
GUUGCGUUGGCGUUAUGGUAACGUGUCUCCCUCCUAAGGAGAAGACUGGGGGUUCGAGUCCCGUACGGAACG [C4G A14U C24U C49G] | ≤ | 0.5
GUACCGUUGGAGUAAUGGUAACGCGUCUCCCUCCUAAGGAGAAGACUGCGGGUUCGAGUCCCGUACGGAACG [U3A C11A] | = | 0.607
GUUUCGUUGGCGUCAUGGUAACGCGUCUCCCUCCUAAGCAGAAGACUGCGGGUUCGAGUCCCGUACGGAACG [C4U A14C G39C] | ≤ | 0.5
GUUCCGUUGGCGUAAUGGUAGAGCGUCUCCCUCCUAAGGUGAAGACUGCGGGUUCGAGUCUCGUACGGAACG [A21G C22A A40U C61U] | = | 0.507
GUUCCGUUGGCGUAAUGGUACCGCGUAUCCCUCCUAAGGAGAAGACUGGGGGUUCGAGUCCCGUACGGAACG [A21C C27A C49G] | = | 0.54
GUUCCGUUGGCGUAAUGGUAACGCGUCUCCCUCUUAAGGAGAAGACUAGGGGUUCGAGUCCCGUACGGAACG [C34U G48A C49G] | = | 0.563
GUUCCAUUGGCGUAAUGGUAACGCCUCUCCCUCUUAAGGAGAAGAAUGCGGGUUCGAGUCCCGUACGGAACG [G6A G25C C34U C46A] | ≤ | 0.5
GUUCCGUUGGCGUAACGGUAACGCGCCUCCCUCCUAAGGCGAGAACUGCGGGUUCGAGUCCCGUACGGAACG [U16C U26C A40C A43G G44A] | ≤ | 0.5
GUUCCGUUGGCGUAAUGGUAACGCGUCUCCGUCCUAAGGAGAAGACUGCGGGUUCGAGUCUCGUACGGAACG [C31G C61U] | = | 0.834
GUUCCGUUGGCGUAAUGGUAACGCGUGGCCCUCCUAAGGAGAAGACUGCGGGUUCGAGUCCCGUACGGAACG [C27G U28G] | = | 0.522
GUUCCGUUGGCGUAAAGGUAACGCGUCUCCCUCCUAAGGAGAAGACUGCGGGUUCGACUCCCGUACGGAACG [U16A G58C] | = | 0.963
GUUCCGUUGGCGUAAUGGUAACGCGUCUCCCUCCUAAGGAGAAGUCUGCGGGUUCGAGUCGCGUAUGGAACG [A45U C61G C66U] | = | 0.53
GUUCCGUUGGCGUAAUGGUUACGCGUCUCCCUCCUAAGGAGAAGGCUGCAGAUUCGAGUCCCGUACGGAACG [A20U A45G G50A G52A] | = | 0.602
GUCCCGUUGGCGUAAUGGUAACGCGUCUCCCUGCUAAGGAGAAGACUGCGGGUUCGAGUCCCGUACGGCACG [U3C C33G A69C] | = | 0.621
GUUCCGUUGGCGUAAUGGUAACGCGUUUCCCUCCUAAGGAGAAGACUGCGGGUGUGAGUCCCGUACGGAACG [C27U U54G C55U] | ≤ | 0.5
GUUCCAUUCGCGUGAUGGUAACGCGUCUCCCUCCUAAGGAGAAGACUGCGGGUUCGAGUCCCGUACGGAACG [G6A G9C A14G] | ≤ | 0.5
GUUCCGUUGGCGUAAUGGUAACGUGUGUCCCUCCUAAGGAGAAGACUGCGGGUUCGAGUCGCGUACGGAACG [C24U C27G C61G] | ≤ | 0.5
GUACCGUUGGCGUAAUGGUAACGCCUCUCCCUCCUAAGGAGAAGACUGCGGGUUCGAGUCCCGUACGGAACG [U3A G25C] | = | 1.03
GUUCCGUUGGCGUAAUGGUAACGCGUCUGCCUCCUGAGGAGAAGACUGCGGGUUUGAGUCCCGUACGGAACG [C29G A36G C55U] | ≤ | 0.5
GUUCCGUUGGCGUAAUGGUAAGGCGUCUCCCUCCUAGGGAGAAGACUGCGGGUUCGAGUCCCGUACGGAACG [C22G A37G] | = | 0.697
GUUCCGUUGGCGUAAUGGUGACGCGUCUCCCUCCUAGGGAGAAAACUGCGGGUUCGAGUCCCGUUCGGAACG [A20G A37G G44A A65U] | ≤ | 0.5
GUUCCGUUGGCAUAAUGGUAACGCGUCUCCCUUCUCAGGAGAAGACUGCGGGUUGGAGUCCCGUACGGAACG [G12A C33U A36C C55G] | ≤ | 0.5
GUCCCGUUGGCGUAAUGGUAACGCGUCUCCCGCCUAAGGAGAAGACUGCGGGUUCGAGUCAAGUACGGAACG [U3C U32G C61A C62A] | = | 0.53
GUUCCGUUGGCGUAAUGGUAACGCGUCUCCCUCCUAAGGAGAAGACUGGGGGUUCCAGUCCCGUACCGAACG [C49G G56C G67C] | ≤ | 0.5
GUUCGGUUGGCGUAAUGGUGACGCGUCUCCCUCCUAAGGAGAAGAUUGCGGGUUCGAGUCCCGUACGGAACG [C5G A20G C46U] | = | 0.638
GUAGCGUUGGCGUAAUGGUAACGCGUCUCCCUCCUAAGGAGAAGACUGCGGGUUCGAGUCCUGUACGGACCG [U3A C4G C62U A70C] | = | 0.754
GUUCCGUUGGCGUAAUGAUACCGCGUCUCUCUCAUAAGGAGAAGACUGCGGGUUCGAGUCCCGUACGGAACG [G18A A21C C30U C34A] | ≤ | 0.5
GUUCCGUCGGCGUAAUGGUAACGCGUCUCCCUCCUAAGGCGAAGACUGCGGGUUGGAGUCCCGUACGGAACG [U8C A40C C55G] | ≤ | 0.5
GUUCCGAUGGUGUAAUGGUAACGCGUCUCCCUCCUAAGGAGAAGACUGAGGGUUCGAGUCCCGUACGGAACG [U7A C11U C49A] | = | 0.614
GUUCCGUUGGCGUAAUGGUGACGGGUCUCCCUACUUAGGAGAAGACUGCGGGUUCGAGUCCCGUACGGAACG [A20G C24G C33A A36U] | ≤ | 0.5
GUUCCGUUGGCGUAAUCGUAACGCGUGUACCUCCUAAGGAGAAGACUGCGGGUUCGAGUCCCGUACGGAACG [G17C C27G C29A] | ≤ | 0.5
